test system: systolic blood pressure; experiment: systolic blood pressure in spontaneously hypertensive rats; type: in vivo; conditions: SHR rats, 14 days, 600 mg/kg every 12 hours, p.o.; basal 216 mmHg
Tick satisfied if Δ SP, change in systolic blood pressure is -40 mmHg or greater. Tick not satisfied if Δ SP, change in systolic blood pressure is less than -40 mmHg.

Exam item: decide whether the reported Δ SP, change in systolic blood pressure for CCCCCCCCC=CCCCCCCC(O)C(=O)OCC(COC(=O)C(O)CCCCCCC=CCCCCCCCC)OC(=O)C(O)CCCCCCC=CCCCCCCCC (centres unmarked) is at least -40 mmHg. satisfied

Exam item: decide whether the reported Δ SP, change in systolic blood pressure for CCCCCC=CCC=CCC=CCC=CCCC(O)C(=O)OCC(COC(=O)C(O)CCC=CCC=CCC=CCC=CCCCCC)OC(=O)C(O)CCC=CCC=CCC=CCC=CCCCCC (centres unmarked) is at least -40 mmHg. not satisfied

Exam item: decide whether the reported Δ SP, change in systolic blood pressure for CCC=CCC=CCC=CCC=CCC=CCC=CCC(O)C(=O)OCC(COC(=O)C(O)CC=CCC=CCC=CCC=CCC=CCC=CCC)OC(=O)C(O)CC=CCC=CCC=CCC=CCC=CCC=CCC (centres unmarked) is at least -40 mmHg. not satisfied

----------
System: transgenic rat with 5 mutations of human familial Alzheimer's (Tag)
Test: radial maze test in transgenic rats with Alzheimer's
Assay type: in vivo
Details: Tag rats, 50 mg/kg p.o. daily; 100% = healthy animals without Alzheimer's
From the text: In order to study Alzheimer's disease a transgenic rat model was used with 5 mutations which appear in human familiar Alzheimer's (symbolised as Tag, and abbreviated Tg). […] The rats were subjected to a low-calorie diet so that they would be hungry and carry out a test in a radial maze, in which food was placed in 4 of the device's 8 arms (asymmetrically), quantifying the number of errors committed until the exercise was completed. […]
observable: Errors made in the radial maze (%)
Give bare numbers, in %.

Worked examples follow.
# compound, unit_of_measure, data_value
records = [
    ("CCCCCC(O)C(=O)OCC(COC(=O)C(O)CCCCC)OC(=O)C(O)CCCCC (centres unmarked) [TGM0, 1,2,3-tri(2′-hydroxyheptanoyl)glycerol]", "%", 153.1),
    ("CCCCCC=CCC=CCCCCCCC(O)C(=O)OCC(COC(=O)C(O)CCCCCCC=CCC=CCCCCC)OC(=O)C(O)CCCCCCC=CCC=CCCCCC (centres unmarked) [TGM2]", "%", 143.2),
    ("CCCCCC=CCC=CCC=CCC=CCCC(O)C(=O)OCC(COC(=O)C(O)CCC=CCC=CCC=CCC=CCCCCC)OC(=O)C(O)CCC=CCC=CCC=CCC=CCCCCC (centres unmarked) [TGM4]", "%", 101.0),
    ("CCC=CCC=CCC=CCCCCCCC(O)C(=O)OCC(COC(=O)C(O)CCCCCCC=CCC=CCC=CCC)OC(=O)C(O)CCCCCCC=CCC=CCC=CCC (centres unmarked) [TGM3A]", "%", 134.5),
    ("CCCCCC=CCC=CCC=CCCCC(O)C(=O)OCC(COC(=O)C(O)CCCC=CCC=CCC=CCCCCC)OC(=O)C(O)CCCC=CCC=CCC=CCCCCC (centres unmarked) [TGM3G]", "%", 156.8),
    ("CCC=CCC=CCC=CCC=CCC=CCCC(O)C(=O)OCC(COC(=O)C(O)CCC=CCC=CCC=CCC=CCC=CCC)OC(=O)C(O)CCC=CCC=CCC=CCC=CCC=CCC (centres unmarked) [TGM5]", "%", 121.3),
    ("CCC=CCC=CCC=CCC=CCC=CCC=CCC(O)C(=O)OCC(COC(=O)C(O)CC=CCC=CCC=CCC=CCC=CCC=CCC)OC(=O)C(O)CC=CCC=CCC=CCC=CCC=CCC=CCC (centres unmarked) [TGM6]", "%", 84.7),
]

Field: next compound
I'm curious: which Errors made in the radial maze was measured for CCCCCCCCC=CCCCCCCC(O)C(=O)OCC(COC(=O)C(O)CCCCCCC=CCCCCCCCC)OC(=O)C(O)CCCCCCC=CCCCCCCCC (centres unmarked) [TGM1] tested on transgenic rat with 5 mutations of human familial Alzheimer's (Tag)? 128.9

Numbers sourced from patent US10047036B2.
